# system tested: human Nav1.7 (hNav1.7) (Homo sapiens, UniProt Q15858)
# Construct: expressed in transfected cells
# Sequence (Q15858 whole entry): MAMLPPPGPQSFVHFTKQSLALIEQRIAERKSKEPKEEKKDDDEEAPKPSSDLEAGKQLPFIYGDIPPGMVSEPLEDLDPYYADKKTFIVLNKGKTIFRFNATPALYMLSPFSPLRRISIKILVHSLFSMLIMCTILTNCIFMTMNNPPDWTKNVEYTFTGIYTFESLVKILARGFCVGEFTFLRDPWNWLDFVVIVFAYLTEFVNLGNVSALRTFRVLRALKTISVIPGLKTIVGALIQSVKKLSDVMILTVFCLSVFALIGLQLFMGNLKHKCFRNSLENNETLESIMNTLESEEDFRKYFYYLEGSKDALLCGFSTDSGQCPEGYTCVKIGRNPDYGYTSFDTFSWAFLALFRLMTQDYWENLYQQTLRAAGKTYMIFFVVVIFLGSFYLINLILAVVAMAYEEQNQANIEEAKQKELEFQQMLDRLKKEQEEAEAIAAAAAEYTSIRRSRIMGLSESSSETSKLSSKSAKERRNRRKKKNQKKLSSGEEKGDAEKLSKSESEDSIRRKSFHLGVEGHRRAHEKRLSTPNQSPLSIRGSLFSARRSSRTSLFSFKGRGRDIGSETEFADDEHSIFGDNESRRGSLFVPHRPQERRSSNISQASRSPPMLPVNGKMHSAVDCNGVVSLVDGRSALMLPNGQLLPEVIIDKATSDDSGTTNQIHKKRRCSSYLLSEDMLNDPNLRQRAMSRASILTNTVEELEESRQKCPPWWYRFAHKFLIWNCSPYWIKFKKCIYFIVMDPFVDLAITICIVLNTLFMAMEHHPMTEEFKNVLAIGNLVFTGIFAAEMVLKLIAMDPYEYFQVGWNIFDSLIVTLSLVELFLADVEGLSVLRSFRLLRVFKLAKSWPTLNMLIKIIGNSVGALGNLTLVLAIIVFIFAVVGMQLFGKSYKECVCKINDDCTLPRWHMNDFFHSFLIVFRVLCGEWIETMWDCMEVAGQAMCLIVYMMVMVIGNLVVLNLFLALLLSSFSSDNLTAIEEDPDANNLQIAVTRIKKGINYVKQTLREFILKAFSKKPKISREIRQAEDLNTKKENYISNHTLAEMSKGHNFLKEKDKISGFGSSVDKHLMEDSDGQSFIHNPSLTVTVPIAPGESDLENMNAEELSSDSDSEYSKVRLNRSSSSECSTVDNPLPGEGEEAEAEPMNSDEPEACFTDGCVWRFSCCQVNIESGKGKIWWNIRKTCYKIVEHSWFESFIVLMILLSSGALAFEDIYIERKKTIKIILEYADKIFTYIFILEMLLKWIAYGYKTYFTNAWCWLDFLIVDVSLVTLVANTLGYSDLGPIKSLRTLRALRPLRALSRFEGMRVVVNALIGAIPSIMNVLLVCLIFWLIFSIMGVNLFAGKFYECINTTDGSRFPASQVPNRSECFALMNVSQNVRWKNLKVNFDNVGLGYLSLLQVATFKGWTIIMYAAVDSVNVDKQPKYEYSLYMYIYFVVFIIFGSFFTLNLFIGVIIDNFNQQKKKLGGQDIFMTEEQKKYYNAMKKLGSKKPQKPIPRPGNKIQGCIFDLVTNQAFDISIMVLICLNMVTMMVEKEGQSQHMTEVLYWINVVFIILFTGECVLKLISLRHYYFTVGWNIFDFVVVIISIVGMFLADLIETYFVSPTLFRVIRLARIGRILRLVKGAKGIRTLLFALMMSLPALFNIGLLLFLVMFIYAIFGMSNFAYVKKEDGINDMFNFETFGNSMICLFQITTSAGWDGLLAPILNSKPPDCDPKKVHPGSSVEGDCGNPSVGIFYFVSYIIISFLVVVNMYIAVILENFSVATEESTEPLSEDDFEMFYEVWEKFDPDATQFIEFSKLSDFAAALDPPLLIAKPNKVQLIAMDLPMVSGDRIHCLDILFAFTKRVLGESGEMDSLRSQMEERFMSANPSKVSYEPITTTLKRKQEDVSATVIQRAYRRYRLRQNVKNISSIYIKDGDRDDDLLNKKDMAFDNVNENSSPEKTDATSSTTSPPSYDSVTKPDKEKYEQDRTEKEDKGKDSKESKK
# Sequence (Q07699 19-218 partner): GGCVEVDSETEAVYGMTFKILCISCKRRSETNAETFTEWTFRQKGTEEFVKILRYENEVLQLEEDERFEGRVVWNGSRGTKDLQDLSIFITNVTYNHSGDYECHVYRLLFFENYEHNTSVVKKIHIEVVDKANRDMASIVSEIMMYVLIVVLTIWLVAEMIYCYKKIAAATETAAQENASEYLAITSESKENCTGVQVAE
# assay overview: hNav1.7 slow inactivation block, manual patchclamp
# Type: cell-based
# experimental conditions: HEK 293F cells stably expressing hNav1.7, slow inactivation induced in approximately 50% of channels
parameter: IC50

Consider the reported IC50 for these compounds:
CCNC(=O)c1cc(Oc2cc(F)c(S(=O)(=O)Nc3ncns3)cc2F)cc(C(F)(F)F)c1 : ~16200 nM
N#Cc1cc(S(=O)(=O)Nc2nncs2)ccc1Oc1cc(C(F)(F)F)cc(C(F)(F)F)c1 : > 10000 nM

Consider the record given below.
Record CCCOc1cc(Oc2cc(F)c(S(=O)(=O)Nc3ncns3)cc2F)cc(C(F)(F)F)c1 . Reported IC50: ~413 nM
